- TESTED_TARGET: CDK8 (Homo sapiens)
- Construct: made in house; host or cells: E. coli BL21-derived host (T7 phage display) or HEK-293 cells
- Sequence (P49336 whole entry): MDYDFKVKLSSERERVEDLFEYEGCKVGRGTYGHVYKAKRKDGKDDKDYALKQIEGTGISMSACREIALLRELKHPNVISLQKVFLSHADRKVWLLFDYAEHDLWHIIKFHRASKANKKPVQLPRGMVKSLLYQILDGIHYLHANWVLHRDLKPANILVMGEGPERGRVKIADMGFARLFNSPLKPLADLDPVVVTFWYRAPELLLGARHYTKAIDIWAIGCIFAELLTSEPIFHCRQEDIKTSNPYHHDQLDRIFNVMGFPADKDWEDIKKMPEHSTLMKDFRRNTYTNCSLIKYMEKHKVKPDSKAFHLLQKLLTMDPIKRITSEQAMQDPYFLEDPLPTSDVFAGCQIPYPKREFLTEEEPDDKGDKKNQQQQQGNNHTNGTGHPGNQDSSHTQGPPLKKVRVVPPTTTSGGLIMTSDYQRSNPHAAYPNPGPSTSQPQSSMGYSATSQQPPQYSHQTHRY
- RUN_DESCRIPTION: Kinase competition binding assay (Kd, qPCR readout), CDK8
- MEASUREMENT_SETUP: in vitro binding; 11-point 3-fold dilution series; read-out: pKd (CDK8) (converted)
- Method: Compounds 1 to 11 were tested for their in vitro binding activity against CDK8 and CDK19. Kinase assays: Kinase-tagged T7 phage strains were prepared in an E. coli host derived from the BL21 strain. […] Kds were determined using an 11-point 3-fold compound dilution series with three DMSO control points. […] The kinase concentration in the eluates was measured by qPCR. […] Binding constants: Binding constants (Kds) were calculated with a standard dose-response curve using the Hill equation: […]

[
  {
    "STRUCTURE": "CN(C)CCn1cnc(C(=O)NC2CCN(c3snc4ccccc34)CC2)c1",
    "TESTED_TARGET": "CDK8 (Homo sapiens)",
    "Kd / µM": 3.98
  },
  {
    "STRUCTURE": "CC(=O)NC1CCN(c2snc3ccccc23)CC1",
    "TESTED_TARGET": "CDK8 (Homo sapiens)",
    "Kd / µM": 10
  },
  {
    "STRUCTURE": "O=C(NC1CCN(c2snc3ccccc23)CC1)c1cn(Cc2ncccn2)cn1",
    "TESTED_TARGET": "CDK8 (Homo sapiens)",
    "Kd / µM": 0.501
  },
  {
    "STRUCTURE": "CN(C)C(=O)Cn1cnc(C(=O)NC2CCN(c3snc4ccc(F)cc34)CC2)c1",
    "TESTED_TARGET": "CDK8 (Homo sapiens)",
    "Kd / µM": 0.501
  },
  {
    "STRUCTURE": "CN(C)C(=O)Cn1cnc(C(=O)NC2CCN(c3snc4ccccc34)CC2)c1",
    "TESTED_TARGET": "CDK8 (Homo sapiens)",
    "Kd / µM": 0.631
  },
  {
    "STRUCTURE": "O=C(NC1CCN(c2snc3ccccc23)CC1)c1cn(CC2COC2)cn1",
    "TESTED_TARGET": "CDK8 (Homo sapiens)",
    "Kd / µM": 0.316
  },
  {
    "STRUCTURE": "CNC1CCN(c2snc3ccccc23)CC1",
    "TESTED_TARGET": "CDK8 (Homo sapiens)",
    "Kd / µM": 31.6
  },
  {
    "STRUCTURE": "O=C(NC1CCN(c2snc3ccc(F)cc23)CC1)c1cn(Cc2cnccn2)cn1",
    "TESTED_TARGET": "CDK8 (Homo sapiens)",
    "Kd / µM": 0.0251
  },
  {
    "STRUCTURE": "O=C(NC1CCN(c2snc3ccccc23)CC1)c1cn(Cc2cnccn2)cn1",
    "TESTED_TARGET": "CDK8 (Homo sapiens)",
    "Kd / µM": 0.2
  },
  {
    "STRUCTURE": "Cn1cnc(C(=O)NC2CCN(c3snc4ccc(F)cc34)CC2)c1",
    "TESTED_TARGET": "CDK8 (Homo sapiens)",
    "Kd / µM": 0.0631
  },
  {
    "STRUCTURE": "Cn1cnc(C(=O)NC2CCN(c3snc4ccccc34)CC2)c1",
    "TESTED_TARGET": "CDK8 (Homo sapiens)",
    "Kd / µM": 0.398
  }
]
